B1: TLE6 (parent)
chain: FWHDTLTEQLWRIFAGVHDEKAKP

Variants of: B1
Experimental details: protein stability index of a GFP-peptide fusion (GPS, HEK-293T) (PSI 1-6); higher = more stable;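 note: lentivirally expressed fusions sorted by FACS into six bins by GFP to DsRed ratio, PSI derived from sequencing read proportions per bin multiplied by bin number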
Test settings: c terminus: a fixed tail appended
Label scheme for protein stability index: lower than 2 is criterion not met, 2 and above is criterion met.

Q: Say whether D4C shows protein stability index of 2 or more.
A: criterion not met

Q: Say whether E8M shows protein stability index of 2 or more.
A: criterion not met

Q: Say whether T5H shows protein stability index of 2 or more.
A: criterion met

Q: Say whether G16A shows protein stability index of 2 or more.
A: criterion not met

Q: Say whether K21A shows protein stability index of 2 or more.
A: criterion not met

Q: Say whether A15Q shows protein stability index of 2 or more.
A: criterion not met

Q: Say whether A15P shows protein stability index of 2 or more.
A: criterion met

Q: Say whether G16L shows protein stability index of 2 or more.
A: criterion not met

Q: Say whether R12E shows protein stability index of 2 or more.
A: criterion not met

Q: Say whether K23N shows protein stability index of 2 or more.
A: criterion met

Q: Say whether F14E shows protein stability index of 2 or more.
A: criterion met

Q: Say whether E8Q shows protein stability index of 2 or more.
A: criterion met

Q: Say whether H3R shows protein stability index of 2 or more.
A: criterion not met

Q: Say whether Q9Y shows protein stability index of 2 or more.
A: criterion not met

Q: Say whether L6V shows protein stability index of 2 or more.
A: criterion not met

Q: Say whether W11N shows protein stability index of 2 or more.
A: criterion met

Q: Say whether L10F shows protein stability index of 2 or more.
A: criterion not met

Q: Say whether K21S shows protein stability index of 2 or more.
A: criterion not met

Q: Say whether R12H shows protein stability index of 2 or more.
A: criterion met

Q: Say whether E20K shows protein stability index of 2 or more.
A: criterion not met

Q: Say whether I13E shows protein stability index of 2 or more.
A: criterion met

Q: Say whether W2P shows protein stability index of 2 or more.
A: criterion met

Q: Say whether F14Y shows protein stability index of 2 or more.
A: criterion met

Q: Say whether H18C shows protein stability index of 2 or more.
A: criterion met

Q: Say whether H3T shows protein stability index of 2 or more.
A: criterion met

Q: Say whether E8W shows protein stability index of 2 or more.
A: criterion met

Q: Say whether Q9K shows protein stability index of 2 or more.
A: criterion not met

Q: Say whether A22H shows protein stability index of 2 or more.
A: criterion not met

Q: Say whether D19Y shows protein stability index of 2 or more.
A: criterion met

Q: Say whether G16C shows protein stability index of 2 or more.
A: criterion not met

Q: Say whether I13N shows protein stability index of 2 or more.
A: criterion not met

Q: Say whether G16Y shows protein stability index of 2 or more.
A: criterion met

Q: Say whether A15H shows protein stability index of 2 or more.
A: criterion not met

Q: Say whether A15C shows protein stability index of 2 or more.
A: criterion met

Q: Say whether E20C shows protein stability index of 2 or more.
A: criterion not met

Q: Say whether E8S shows protein stability index of 2 or more.
A: criterion not met

Q: Say whether G16E shows protein stability index of 2 or more.
A: criterion not met

Q: Say whether V17N shows protein stability index of 2 or more.
A: criterion not met

Q: Say whether L6K shows protein stability index of 2 or more.
A: criterion met

Q: Say whether L10Y shows protein stability index of 2 or more.
A: criterion not met

Q: Say whether E20M shows protein stability index of 2 or more.
A: criterion met

Q: Say whether H18R shows protein stability index of 2 or more.
A: criterion not met

Q: Say whether L10V shows protein stability index of 2 or more.
A: criterion met

Q: Say whether E20A shows protein stability index of 2 or more.
A: criterion met

Q: Say whether E20P shows protein stability index of 2 or more.
A: criterion not met
